Give measured Kd for each item. Keep answers brief.
Target Entity: modified FV (B-domain-truncated factor V) (human, UniProt P12259 29-838+1520-2224, R737Q;R1573Q;internal_change)
Assay Procedure: filter binding
Answers are plain numbers, in µM.

T18.3 (structured_RNA, all C and U 2'-fluoro) RNA: GGACUUGGAUAACCUCACCGCAAUGGCGGCUUGUCAGACGACUCGCUGAGGAUCCGAG : 0.028

Provide only the value of recorded Kd for Mut1 (structured_RNA, all C and U 2'-fluoro) RNA: GGACUUGGAUAACCUCACCGCAAUGGCGGAGGGUCAGACGACUCGCUGAGGAUCCGAG 0.41

The origin of these recorded values is paper PMC8808741.
